Measured values drawn from patent US4263309A for this set.

- Method notes: Oral LD50 toxicity
- Format: in vivo
- Cond: rat, in vivo, Charles River Sprage Dawley CD strain male rats

{"columns": ["Compound", "LD50 (mg/kg)"],
 "data": [
  ["Cc1cc2c(cc1C)C(=O)c1[nH]nnc1C2=O [1(d)]", 980]
]}
